All figures here come from patent US20260297042A1.

Target: WEE1 (Homo sapiens)
Construct: purchased Thermo Fisher PR7373A
Test: Selectivity versus WEE1 assay (ADP-Glo enzymatic assay)
Format: biochemical
Conditions: fold difference in selectivity for PKMYT1 over WEE1; banded; ">N" = at least in this band but could be higher
assay.metric: PKMYT1 vs. WEE1 selectivity

Cc1ccc(O)c(C)c1NC(=O)c1cnc(Nc2ccnc(-c3ccc(F)cc3)c2)s1 [BAA-304] ... X (100-<1000 fold)
Cc1ccc(O)c(C)c1NC(=O)c1cnc(Nc2cccc(S(C)(=O)=O)c2)s1 [BAA-276] ... Y (1000-5000 fold)
Cc1ccc(O)c(C)c1NC(=O)c1sc(Nc2ccn(C)n2)nc1N [BAA-219] ... V (3-<10 fold)
Cc1ccc(O)c(C)c1NC(=O)c1cnc(Nc2ccn([C@@H]3CCN(C(=O)C4CCOCC4)C3)n2)s1 [BAA-082] ... >X (100-<1000 fold)

Ask: Return reported PKMYT1 vs. WEE1 selectivity; argument: Cc1ccc(O)c(C)c1NC(=O)c1cnc(Nc2ccc3cc(Br)cnc3n2)s1 [BAA-298]
Reply: Y (1000-5000 fold)

Ask: Return reported PKMYT1 vs. WEE1 selectivity; argument: Cc1ccc(O)c(C)c1NC(=O)c1cnc(Nc2cc(C)n(C)n2)s1 [BAA-122]
Reply: X (100-<1000 fold)

Ask: Return reported PKMYT1 vs. WEE1 selectivity; argument: Cc1ccc(O)c(C)c1NC(=O)c1cnc(Nc2nc(C)c(C)s2)s1 [BAA-266]
Reply: X (100-<1000 fold)

Ask: Return reported PKMYT1 vs. WEE1 selectivity; argument: Cc1ccc(O)c(C)c1NC(=O)c1cnc(Nc2cccc(-c3ccc(F)cc3)n2)s1 [BAA-306]
Reply: X (100-<1000 fold)

Ask: Return reported PKMYT1 vs. WEE1 selectivity; argument: Cc1ccc(O)c(C)c1NC(=O)c1cnc(Nc2ccc(NC(=O)c3c(F)cc(F)cc3F)cn2)s1 [BAA-302]
Reply: X (100-<1000 fold)

Ask: Return reported PKMYT1 vs. WEE1 selectivity; argument: Cc1ccc(O)c(C)c1NC(=O)c1cnc(Nc2ccn(CC(F)(F)F)n2)s1 [BAA-019]
Reply: X (100-<1000 fold)

Ask: Return reported PKMYT1 vs. WEE1 selectivity; argument: Cc1ccc(O)c(C)c1NC(=O)c1cnc(Nc2nc(CO)cs2)s1 [BAA-018]
Reply: X (100-<1000 fold)

Ask: Return reported PKMYT1 vs. WEE1 selectivity; argument: CNC(=O)c1cc(Nc2ncc(C(=O)Nc3c(C)ccc(O)c3C)s2)nn1C [BAA-119]
Reply: X (100-<1000 fold)

###

Molecular target: WEE1 (Homo sapiens, UniProt P30291)
Construct: purchased Thermo Fisher PR7373A
Sequence (P30291 whole entry): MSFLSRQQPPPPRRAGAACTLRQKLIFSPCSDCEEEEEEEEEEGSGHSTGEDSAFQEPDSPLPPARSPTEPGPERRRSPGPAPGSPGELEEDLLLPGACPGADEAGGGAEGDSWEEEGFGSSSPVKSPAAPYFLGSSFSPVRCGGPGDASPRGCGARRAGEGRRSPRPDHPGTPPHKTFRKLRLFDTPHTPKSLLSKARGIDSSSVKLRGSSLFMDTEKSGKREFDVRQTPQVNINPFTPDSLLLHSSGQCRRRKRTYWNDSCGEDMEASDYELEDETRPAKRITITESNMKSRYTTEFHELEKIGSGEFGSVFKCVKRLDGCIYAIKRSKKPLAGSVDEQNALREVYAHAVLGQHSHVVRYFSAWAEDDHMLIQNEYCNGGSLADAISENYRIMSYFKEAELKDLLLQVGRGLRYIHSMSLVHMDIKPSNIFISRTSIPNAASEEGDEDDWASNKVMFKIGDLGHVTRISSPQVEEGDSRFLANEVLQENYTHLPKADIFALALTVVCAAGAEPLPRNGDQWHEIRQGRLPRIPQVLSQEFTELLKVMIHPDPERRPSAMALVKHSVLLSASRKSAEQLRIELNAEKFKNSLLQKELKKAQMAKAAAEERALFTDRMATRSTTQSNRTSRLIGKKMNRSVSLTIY
Experiment: Selectivity versus WEE1 assay (ADP-Glo enzymatic assay)
Type: biochemical
Settings: fold difference in selectivity for PKMYT1 over WEE1; banded
assay.metric: PKMYT1 vs. WEE1 selectivity

Cc1ccc(O)c(C)c1NC(=O)c1cnc(Nc2cnn(CC(=O)N3CCCC3)c2C)s1 [BAA-556] ... X (100-<1000 fold)
CCN(C(=O)Cn1cc(C)c(Nc2ncc(C(=O)Nc3c(C)ccc(O)c3C)s2)n1)C1CC1 [BAA-551] ... X (100-<1000 fold)
Cc1ccc(O)c(C)c1NC(=O)c1cnc(Nc2cc(Br)n(C)n2)s1 [BAA-494] ... X (100-<1000 fold)
Cc1ccc(O)c(C)c1NC(=O)c1cnc(Nc2nc(N3CCN(C)CC3)ccc2Cl)s1 [BAA-414] ... X (100-<1000 fold)
